Assay: Pharmacokinetics in mice
Type: in vivo
Settings: female, BALB/c, mouse; 5mg/kg IV, mice, plasma, LC-MS/MS, non-compartmental analysis
Starred links: 1 amine or outer side, 2 acyl side, 3 side chain; linkers in the order of their positions; H or OH if unused. Positions of bridges follow the written chain, without caps; N, C: chain ends. Non-standard residues stand in square brackets, D forms with d. Residues, ends and D or L forms follow the SMILES beside them. *: point of attachment. dAsp(3R-OH) = N[C@@H](C(=O)O)[C@@H](O)C(=O)O; X1 = NC[C@H](O)[C@@H](N[*:1])C(=O)[*:2]; X2 = CCC(C)(O)[C@H](N[*:1])C(=O)[*:2]; d(aIle) = CC[C@H](C)[C@@H](N)C(=O)O; d(aThr) = C[C@@H](O)[C@@H](N)C(=O)O; Myristoyl = CCCCCCCCCCCCCC(=O)*; dOrn = NCCC[C@@H](N)C(=O)O; hSer = N[C@@H](CCO)C(=O)O
PROPERTY MEASURED: C0 (ng/mL)
Response body: numeric value in ng/mL, unit text excluded.

For CCCCCCCCCCCCCC(=O)N[C@H](CCCN)C(=O)N[C@@H](CO)C(=O)N[C@H](C(=O)N[C@@H](C(=O)N[C@@H](C(=O)N[C@H]1C(=O)NCC(=O)N[C@@H](C(C)(O)CC)C(=O)N[C@H]([C@@H](C)CC)C(=O)N[C@@H](CCO)C(=O)N[C@@H](C)C(=O)N[C@H]([C@@H](C)CC)C(=O)N[C@@H](CCC(=O)O)C(=O)O[C@@H]1C)[C@@H](O)CN)[C@@H](O)C(=O)O)C(C)C (stereo partly drawn) [Turnercyclamycin A] (Myristoyl-[dOrn]SV[dAsp(3R-OH)][X1][d(aThr)]G[X2][d(aIle)][hSer]A[d(aIle)]E; ester 6-C) the compound record lists C0 as 33700
